# assaySystem: biotinylated human siglec-2/CD22 protein-His-Avitag (Homo sapiens, UniProt P20273)
# Sequence (P20273 20-847): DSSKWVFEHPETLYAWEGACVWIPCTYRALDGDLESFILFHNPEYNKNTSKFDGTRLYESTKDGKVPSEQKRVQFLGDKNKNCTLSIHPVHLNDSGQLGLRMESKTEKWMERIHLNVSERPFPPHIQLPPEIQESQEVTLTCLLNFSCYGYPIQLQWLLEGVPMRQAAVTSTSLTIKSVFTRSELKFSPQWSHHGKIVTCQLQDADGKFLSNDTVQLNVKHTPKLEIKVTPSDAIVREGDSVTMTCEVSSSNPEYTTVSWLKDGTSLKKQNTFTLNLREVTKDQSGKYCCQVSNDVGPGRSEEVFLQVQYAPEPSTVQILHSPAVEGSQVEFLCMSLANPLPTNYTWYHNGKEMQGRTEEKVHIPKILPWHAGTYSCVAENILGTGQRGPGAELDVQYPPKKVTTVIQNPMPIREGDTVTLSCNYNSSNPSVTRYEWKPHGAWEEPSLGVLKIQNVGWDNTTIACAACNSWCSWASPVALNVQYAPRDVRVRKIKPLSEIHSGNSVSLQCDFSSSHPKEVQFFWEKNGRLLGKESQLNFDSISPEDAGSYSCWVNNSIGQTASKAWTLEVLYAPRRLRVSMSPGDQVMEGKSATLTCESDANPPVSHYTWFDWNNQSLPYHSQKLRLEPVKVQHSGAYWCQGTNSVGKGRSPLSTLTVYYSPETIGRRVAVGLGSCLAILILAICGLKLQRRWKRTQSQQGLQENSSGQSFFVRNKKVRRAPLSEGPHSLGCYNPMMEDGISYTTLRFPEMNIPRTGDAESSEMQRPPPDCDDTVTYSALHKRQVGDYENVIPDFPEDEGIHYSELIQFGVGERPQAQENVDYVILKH
# protocolNotes: SPR binding to human siglec-2/CD22
# appliedConditions: steady-state analysis, read-out: Human CD22 affinity
pKd: −log10 of the molar value.
propertyLabel: pKd

compoundString: C#CCOCCCCCCCc1ccc(CC(=O)NC[C@@H](O)[C@@H](O)[C@@H]2O[C@@](OCc3ccccc3)(C(=O)O)C[C@H](O)[C@H]2NC(=O)CO)cc1
experimentalResult: 5.00 to 6.00
//
compoundString: C#CCOCCOCCOc1ccc(CC(=O)NC[C@@H](O)[C@@H](O)[C@@H]2O[C@@](OCc3ccccc3)(C(=O)O)C[C@H](O)[C@H]2NC(=O)CO)cc1
experimentalResult: 5.00 to 6.00
//
compoundString: C#CCCCCCCCCOc1ccc(CC(=O)NC[C@@H](O)[C@@H](O)[C@@H]2O[C@@](OCc3ccccc3)(C(=O)O)C[C@H](O)[C@H]2NC(=O)CO)cc1
experimentalResult: 5.00 to 6.00
//
compoundString: C#Cc1ccc(CC(=O)NC[C@@H](O)[C@@H](O)[C@@H]2O[C@@](OCc3ccccc3)(C(=O)O)C[C@H](O)[C@H]2NC(=O)CO)cc1
experimentalResult: > 6.00
//
compoundString: C#CCOCCOCCOCCC(=O)N[C@H]1[C@H]([C@H](O)[C@H](O)CNC(=O)Cc2ccc(Cl)cc2)O[C@@](OCc2ccccc2)(C(=O)O)C[C@@H]1O
experimentalResult: 5.00 to 6.00
//
compoundString: C#Cc1ccc(CC(=O)NC[C@@H](O)[C@@H](O)[C@@H]2O[C@@](OCCCCCCn3cc(COCCOC)nn3)(C(=O)O)C[C@H](O)[C@H]2NC(=O)CO)cc1
experimentalResult: > 6.00
//
compoundString: C#Cc1ccc(CC(=O)NC[C@@H](O)[C@@H](O)[C@@H]2O[C@@](OCCCCCCNc3c(NCCOC)c(=O)c3=O)(C(=O)O)C[C@H](O)[C@H]2NC(=O)CO)cc1
experimentalResult: > 6.00
//
compoundString: CCCNC(=O)CCOCCOCCOCCn1cc(CO[C@H]2C[C@](OCc3ccccc3)(C(=O)O)O[C@@H]([C@H](O)[C@H](O)CNC(=O)Cc3ccc(Cl)cc3)[C@@H]2NC(=O)CO)nn1
experimentalResult: 5.00 to 6.00
//
compoundString: CCCCCCO[C@]1(C(=O)O)C[C@H](O)[C@@H](NC(=O)CO)[C@H]([C@H](O)[C@H](O)CNC(=O)Cc2ccc(-c3cn(CCOCCOCCOCCC(=O)NCC)nn3)cc2)O1
experimentalResult: > 6.00
